Target Of Assay: T1, Epstein-Barr virus BHRF1 a.a. 1-161 with C-terminal avi-6his tag (Epstein-Barr virus)
T1 construct: also called EBV BHRF1; BHRF1-biotin
T1 chain: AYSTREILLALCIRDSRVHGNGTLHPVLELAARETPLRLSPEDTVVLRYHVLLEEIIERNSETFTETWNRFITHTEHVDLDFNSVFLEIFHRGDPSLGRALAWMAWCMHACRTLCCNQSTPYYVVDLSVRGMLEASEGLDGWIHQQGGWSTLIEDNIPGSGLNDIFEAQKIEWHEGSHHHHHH
Protocol: yeast display library, FACS sort at 400 nM BHRF1, deep sequencing

# Binder, Log2 enrichment ratio, log2
rows = [
    ("Index 47 (designed binder) GWSADWIKDQAKELMLRAAEEMKKRADEEEKKFKYKQFTTEFLTKATMRWIALALMAIGDVFNVLMWALEWAKRMAKLNQYRKEELEKAKEEAKKLAEKAARRITEIGREAEQKALKG", -2.79),
    ("Index 38 (designed binder) GEKLKKLAEELEKKFRKLFFILKDELDRAYLIALKTQVQRQELARDTKLWIAVALMIIGDLFNAEIQGKELRDKLIKKNQVEEQKAKEFWKKWEEVKQRAEELIKKGGEMVERLADYG", -1.46),
    ("Index 04 (designed binder) GLLAEEGREQAEERLREARKKAEKAGDKIKDLAKYGQDSDDEKKKFMLKWIAAQLMVIGDMFNHAMEALWELLRRLKNNKISWDAFLKAKEEIEREEKEAARDSREKGREAAKMIDQG", 1.96),
    ("Index 55 (designed binder) GEEAEKLIKEAKDKFEDLREKAEELLYKMWLIRYLSSKDTKRGEIYTKKWIAIMLMMIGDAFNMALRARLYLEERRKRGEKHEEEAEEKERRARWEQEDAYKKAKKGAKRARLYDKLG", -3.29),
]
